assayTarget: KRAS G12S (Homo sapiens, UniProt P01116+P62937, G12S)
Sequence (P01116 1-169 isoform P01116-2 G12S limits assumed): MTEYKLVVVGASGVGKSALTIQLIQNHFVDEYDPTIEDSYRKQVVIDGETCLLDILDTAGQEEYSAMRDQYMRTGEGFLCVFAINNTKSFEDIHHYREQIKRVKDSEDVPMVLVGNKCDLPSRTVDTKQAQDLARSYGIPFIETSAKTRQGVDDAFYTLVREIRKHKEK
Sequence (P62937 whole entry): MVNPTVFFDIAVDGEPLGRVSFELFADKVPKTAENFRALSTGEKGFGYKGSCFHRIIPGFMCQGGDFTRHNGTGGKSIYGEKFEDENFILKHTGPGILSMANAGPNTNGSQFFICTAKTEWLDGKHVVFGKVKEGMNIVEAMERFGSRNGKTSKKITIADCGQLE
assayNotes: Disruption of BRAF RBD interaction with Ras (FRET / MOA assay, with Cyclophilin A)
Type: biochemical
conditionsUsed: read-out: KRAS G12S FRET data, IC50
measureName: IC50

Recorded IC50, per entry:
C=CC(=O)N1C[C@H](C)[C@H](C(=O)N(C)[C@H](C(=O)N[C@H]2Cc3cc(O)cc(c3)-c3ccc4c(c3)c(c(-c3ccccc3CCOC)n4CC)CC(C)(C)COC(=O)[C@@H]3CCCN(N3)C2=O)C(C)C)C1
100 to 1000 nM
CCn1c(-c2cc(C3CCN(C)CC3)cnc2[C@H](C)OC)c2c3cc(ccc31)-c1csc(n1)C[C@H](NC(=O)[C@H](C(C)C)N(C)C(=O)N1CCOCC1)C(=O)N1CCC[C@H](N1)C(=O)OCC(C)(C)C2 (atropisomer, axis not shown)
100 to 1000 nM
C=CC(=O)N1C[C@H](C)[C@H](C(=O)N(C)[C@H](C(=O)N[C@H]2Cc3cc(O)cc(c3)-c3ccc4c(c3)c(c(-c3ccccc3CN(C)C)n4CC)CC(C)(C)COC(=O)[C@@H]3CCCN(N3)C2=O)C(C)C)C1
100 to 1000 nM

Exercise: Data request, read-out IC50, for CCn1c(-c2cccnc2[C@H](C)OC)c2c3cc(ccc31)-c1cc(O)cc(c1)C[C@H](NC(=O)[C@H](C(C)C)N(C)C(=O)[C@H]1CCN(C(=O)CNC)C1)C(=O)N1CCC[C@H](N1)C(=O)OCC(C)(C)C2 (atropisomer, axis not shown)
Solution: 10 to 100 nM

----------
assayTarget: NRAS G12C (Homo sapiens, UniProt P01111+P62937, G12C)
Sequence (P01111 whole entry G12C): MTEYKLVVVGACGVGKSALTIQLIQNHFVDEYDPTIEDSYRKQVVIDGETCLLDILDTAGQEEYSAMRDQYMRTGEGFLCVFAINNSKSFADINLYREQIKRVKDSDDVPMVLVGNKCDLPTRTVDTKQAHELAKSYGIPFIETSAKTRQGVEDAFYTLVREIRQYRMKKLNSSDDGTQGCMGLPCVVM
Sequence (P62937 whole entry): as the sequence (P62937 whole entry) above
assayNotes: Ras-Raf disruption / FRET / MOA assay (BRAF RBD)
Format: biochemical
conditionsUsed: NRAS G12C; read-out: NRAS G12C FRET data IC50
pIC50: −log10 of the molar value.
measureName: pIC50

CCn1c(-c2cccnc2[C@H](C)OC)c2c3cc(ccc31)-c1cc(O)cc(c1)C[C@H](NC(=O)[C@H](C(C)C)N(C)C(=O)C1CCN(S(=O)(=O)[C@@H]3CN3C)CC1)C(=O)N1CCC[C@H](N1)C(=O)OCC(C)(C)C2 (single isomer, unassigned)
6.00 to 7.00
CCn1c(-c2cccnc2[C@H](C)OC)c2c3cc(ccc31)-c1csc(n1)C[C@H](NC(=O)[C@H](C(C)C)N(C)C(=O)N1CCN(C(=O)[C@H]3CN3)C[C@H]1C)C(=O)N1CCC[C@H](N1)C(=O)OCC(C)(C)C2
7.00 to 8.00
CCn1c(-c2cccnc2[C@H](C)OC)c2c3cc(ccc31)-c1csc(n1)C[C@H](NC(=O)[C@H](C(C)C)N(C)C(=O)N(C)CCN(C)C(=O)[C@@H]1CN1)C(=O)N1CCC[C@H](N1)C(=O)OCC(C)(C)C2 (atropisomer, axis not shown)
7.00 to 8.00

Batch lookup, pIC50 per entry.
1. CCn1c(-c2cccnc2[C@H](C)OC)c2c3cc(ccc31)-c1cc(O)cc(c1)C[C@H](NC(=O)[C@H](C(C)C)N(C)C(=O)[C@H]1CCCCN(C(=O)[C@H]3CN3)C1)C(=O)N1CCC[C@H](N1)C(=O)OCC(C)(C)C2 (atropisomer, axis not shown)
2. CCn1c(-c2cccnc2[C@H](C)OC)c2c3cc(ccc31)-c1cccc(c1)C[C@H](NC(=O)[C@H](C1CCCC1)N1CC[C@]3(CCN(C(=O)[C@@H]4N[C@@H]4C4CC4)C3)C1=O)C(=O)N1CCC[C@H](N1)C(=O)OCC(C)(C)C2

Solution:
["7.00 to 8.00", "6.00 to 7.00"]
